Target: T1, O11-bA
T1 chain: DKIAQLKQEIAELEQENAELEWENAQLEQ
Assay: two-hybrid library CCNG1;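 also: natural log of median RNA to DNA barcode read ratio; higher means stronger binding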
Returns one of label 1 or label 0; label 1 when interaction score is >= -0.5.

BINDER	LABEL
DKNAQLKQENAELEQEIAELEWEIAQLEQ [O1-bA]	label 0
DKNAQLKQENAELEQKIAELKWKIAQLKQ [O10-bA]	label 1
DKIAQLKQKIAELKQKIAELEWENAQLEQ [4H2915-bA]	label 1
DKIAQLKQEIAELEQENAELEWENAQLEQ [O11-bA]	label 0
DEIAQLKQKIAELKQENAELEWKNAQLEQ [4H855-bA]	label 0
